TEST: In vivo pharmacokinetics, plasma (UPLC-MS/MS)
Set-up: species or system rat
CONDITION LABEL: male, Sprague-Dawley (SD); rat plasma; tail intravenous injection BA/AH-DPI saline solution 9 mg/kg; 2 min; read-out: Blood concentration of AH
Counter-ions that a name gives are not always drawn.
READOUT LABEL: concentration at 2 min (ng/mL)
Quick note: give the figure in ng/mL, leave out the unit.

*Q* Requested field: concentration at 2 min. Item: Nc1c(Br)cc(Br)cc1CNC1CCC(O)CC1 (stereo not shown) [AH, ambroxol hydrochloride]
*A* 3300

###

TEST: In vivo pharmacokinetics, lung tissue homogenate (UPLC-MS/MS)
Set-up: species or system rat
CONDITION LABEL: male, SD; rat lung tissue homogenate; tail intravenous injection BA/AH-DPI saline solution 9 mg/kg; 2 min; read-out: Drug concentration of AH in lung tissue
Structures can show the parent of a compound that is named as a salt.
READOUT LABEL: concentration at 2 min (µg/mL)
The figure you give is taken to be in µg/mL; do not add the unit.

*Q* What measured concentration at 2 min goes with Nc1c(Br)cc(Br)cc1CNC1CCC(O)CC1 (stereo not shown) [AH, ambroxol hydrochloride] ?
*A* 3.23

###

TEST: In vivo pharmacokinetics, lung tissue homogenate (UPLC-MS/MS)
Set-up: species or system rat
CONDITION LABEL: male, Sprague-Dawley (SD); rat lung tissue homogenate; tail intravenous injection BA/AH-DPI saline solution 9 mg/kg; 4 min; read-out: Drug concentration of AH in lung tissue
Where a name gives a salt, the structure may show the parent alone.
READOUT LABEL: concentration at 4 min
Please append the unit to your numeric answer.

*Q* What concentration at 4 min value was documented for this compound, Nc1c(Br)cc(Br)cc1CNC1CCC(O)CC1 (stereo not shown) [AH, ambroxol hydrochloride] ?
*A* 1780 ng/mL

###

TEST: In vivo pharmacokinetics, plasma (UPLC-MS/MS)
Parameters: species or system rat
CONDITION LABEL: male, SD, inhaled or intranasal; AH in rat plasma; pulmonary administration group, BA/AH-DPI 9 mg/kg
Counter-ions that a name gives are not always drawn.
READOUT LABEL: Cmax (µg/mL)
Please state the figure in µg/mL; there is no need to write the unit.

*Q* Look up Cmax for this molecule: Nc1c(Br)cc(Br)cc1CNC1CCC(O)CC1 (stereo not shown) [AH, ambroxol hydrochloride]
*A* 1.77

###

TEST: In vivo pharmacokinetics, plasma (UPLC-MS/MS)
Parameters: species or system rat
CONDITION LABEL: male, SD, inhaled or intranasal; AH in rat plasma; pulmonary administration group, BA/AH-DPI 9 mg/kg; read-out: Vz/F (apparent volume of distribution)
Where a name gives a salt, the structure may show the parent alone.
READOUT LABEL: Vd/F
Your reply should be a number followed by the unit it is expressed in.

*Q* # get_value(readout='Vd/F', item= Nc1c(Br)cc(Br)cc1CNC1CCC(O)CC1 (stereo not shown) [AH, ambroxol hydrochloride] )
*A* 37.2 L/kg
